- Test System: T1, IKKα(10-667) S176E/S180E homodimer, 6×His tag removed (human, UniProt O15111 10-667)
- T1 construct: also called purified IKKα
- T1 sequence (looked up): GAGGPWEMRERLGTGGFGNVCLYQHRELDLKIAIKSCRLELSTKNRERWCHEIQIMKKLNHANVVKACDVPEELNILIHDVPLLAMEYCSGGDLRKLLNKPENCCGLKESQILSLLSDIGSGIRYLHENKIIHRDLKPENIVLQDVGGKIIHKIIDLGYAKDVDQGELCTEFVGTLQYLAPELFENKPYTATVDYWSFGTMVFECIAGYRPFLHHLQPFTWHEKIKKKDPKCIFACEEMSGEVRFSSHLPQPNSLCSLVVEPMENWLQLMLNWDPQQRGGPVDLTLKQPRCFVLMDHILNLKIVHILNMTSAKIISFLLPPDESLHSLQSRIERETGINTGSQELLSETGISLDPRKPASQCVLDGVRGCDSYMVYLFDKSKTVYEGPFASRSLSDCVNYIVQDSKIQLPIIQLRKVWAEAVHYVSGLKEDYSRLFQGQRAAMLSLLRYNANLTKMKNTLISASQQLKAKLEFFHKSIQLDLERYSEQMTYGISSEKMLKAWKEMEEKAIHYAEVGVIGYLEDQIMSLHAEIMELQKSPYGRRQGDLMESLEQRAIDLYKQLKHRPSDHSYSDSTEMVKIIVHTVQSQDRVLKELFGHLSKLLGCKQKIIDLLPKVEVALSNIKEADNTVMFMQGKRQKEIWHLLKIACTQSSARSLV
- Experiment: ITC, 25 °C, 1:1 model; values called estimates; table value; footnote calls it an estimate
Quantity Measured: Kd

Q: Item under review: LSSANSLYDDIECFLMELEQPA [synthetic IRF7 pep] . Reported Kd?
Ans: ~90 µM
